Would you kindly list viability, T/C for each of these molecules?
# Test system: K86415-001-R-J1-PDC complex spheroids, viability
# protocol_notes: Anticancer human tumor K86415-001-R-J1-PDC patient-derived lung adenocarcinoma cell line growth inhibition [RAS]
# cond: second compound 0.003 µM; first compound 0.000949 µM; stronger effect = lower value
Response body: numeric value in %, unit text excluded.

For record CCc1c2c(nc3ccc(O)cc13)-c1cc3c(c(=O)n1C2)COC(=O)[C@]3(O)CC + CCn1c(-c2cc(N3CCN(C)CC3)cnc2C(C)OC)c2c3cc(ccc31)-c1csc(n1)CC(NC(=O)C1CC1C)C(=O)N1CCCC(N1)C(=O)OCC(C)(C)C2 the listed viability, T/C is 22

For record CC1(C)CCC(Nc2ncc(C(F)(F)F)c(-c3c[nH]c4c(P(C)(C)=O)c(C#N)ccc34)n2)CN1 (centres undefined) + CCn1c(-c2cccnc2C(C)OC)c2c3cc(ccc31)N1CCOC(CC(NC(=O)C(C(C)C)N(C)C(=O)C3(F)CCN(C(=O)C#CC(C)(C)N(C)C)CC3)C(=O)N3CCCC(N3)C(=O)OCC(C)(C)C2)C1 the listed viability, T/C is 15.9

For record CCc1c2c(nc3ccc(O)cc13)-c1cc3c(c(=O)n1C2)COC(=O)[C@]3(O)CC + CCn1c(-c2cccnc2C(C)OC)c2c3cc(ccc31)N1CCOC(CC(NC(=O)C(C(C)C)N(C)C(=O)C3(F)CCN(C(=O)C#CC(C)(C)N(C)C)CC3)C(=O)N3CCCC(N3)C(=O)OCC(C)(C)C2)C1 the listed viability, T/C is 11.9

For record CC1(C)CCC(Nc2ncc(C(F)(F)F)c(-c3c[nH]c4c(P(C)(C)=O)c(C#N)ccc34)n2)CN1 (centres undefined) + CCn1c(-c2cc(N3CCN(C)CC3)cnc2C(C)OC)c2c3cc(ccc31)-c1csc(n1)CC(NC(=O)C1CC1C)C(=O)N1CCCC(N1)C(=O)OCC(C)(C)C2 the listed viability, T/C is 24.9

---

Would you kindly list viability, T/C for each of these molecules?
# Test system: K86415-001-R-J1-PDC complex spheroids, viability
# protocol_notes: Anticancer human tumor K86415-001-R-J1-PDC cell line growth inhibition [RAS];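 also: spheroids exposed to agents for seven days before readout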
# cond: second compound 0.3 µM; first compound 3.16 µM; stronger effect = lower value
Response body: numeric value in %, unit text excluded.

For record C[C@@H](NC(=O)c1ncnc(N)c1Cl)c1ncc(C(=O)Nc2cc(C(F)(F)F)c(Cl)cn2)s1 + CCn1c(-c2cc(N3CCN(C)CC3)cnc2C(C)OC)c2c3cc(ccc31)-c1csc(n1)CC(NC(=O)C1CC1C)C(=O)N1CCCC(N1)C(=O)OCC(C)(C)C2 the listed viability, T/C is 4.53

For record CC(=O)OC12COC1CC(O)C1(C)C(=O)C(O)C3=C(C)C(OC(=O)C(O)C(NC(=O)OC(C)(C)C)c4ccccc4)CC(O)(C(OC(=O)c4ccccc4)C21)C3(C)C (centres undefined) + CCn1c(-c2cc(N3CCN(C)CC3)cnc2C(C)OC)c2c3cc(ccc31)-c1csc(n1)CC(NC(=O)C1CC1C)C(=O)N1CCCC(N1)C(=O)OCC(C)(C)C2 the listed viability, T/C is 2.06

For record CCC(CC)c1cc(NC2CCC(N)C2)n2nccc2n1 (centres undefined) + CCn1c(-c2cc(N3CCN(C)CC3)cnc2C(C)OC)c2c3cc(ccc31)-c1csc(n1)CC(NC(=O)C1CC1C)C(=O)N1CCCC(N1)C(=O)OCC(C)(C)C2 the listed viability, T/C is 4.29

For record Cc1nc(N2CCC3(CC2)COC(C)C3N)c(CO)nc1Sc1ccnc(N)c1Cl (centres undefined) + CCn1c(-c2cc(N3CCN(C)CC3)cnc2C(C)OC)c2c3cc(ccc31)-c1csc(n1)CC(NC(=O)C1CC1C)C(=O)N1CCCC(N1)C(=O)OCC(C)(C)C2 the listed viability, T/C is 4.46

---

# Tested on: K86415-001-R-J1-PDC complex spheroids, viability
# protocol_notes: Anticancer human tumor K86415-001-R-J1-PDC cell line growth inhibition [RAS];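 also: spheroids exposed to agents for seven days before readout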
# cond: second compound 0.0949 µM; first compound 0.316 µM; stronger effect = lower value
quantity_kind: viability, T/C (%)
Response body: numeric value in %, unit text excluded.

For record O=C(c1ccc(F)c(F)c1Nc1ccc(I)cc1F)N1CC(O)([C@@H]2CCCCN2)C1 + CCn1c(-c2cc(N3CCN(C)CC3)cnc2C(C)OC)c2c3cc(ccc31)-c1csc(n1)CC(NC(=O)C1CC1C)C(=O)N1CCCC(N1)C(=O)OCC(C)(C)C2 the listed viability, T/C is 0.8

For record C=CC(=O)Nc1cc(Nc2nccc(-c3cn(C)c4ccccc34)n2)c(OC)cc1N(C)CCN(C)C + CCn1c(-c2cccnc2C(C)OC)c2c3cc(ccc31)N1CCOC(CC(NC(=O)C(C(C)C)N(C)C(=O)C3(F)CCN(C(=O)C#CC(C)(C)N(C)C)CC3)C(=O)N3CCCC(N3)C(=O)OCC(C)(C)C2)C1 the listed viability, T/C is 5.53

For record CC(=O)OC12COC1CC(O)C1(C)C(=O)C(O)C3=C(C)C(OC(=O)C(O)C(NC(=O)OC(C)(C)C)c4ccccc4)CC(O)(C(OC(=O)c4ccccc4)C21)C3(C)C (centres undefined) + CCn1c(-c2cccnc2C(C)OC)c2c3cc(ccc31)N1CCOC(CC(NC(=O)C(C(C)C)N(C)C(=O)C3(F)CCN(C(=O)C#CC(C)(C)N(C)C)CC3)C(=O)N3CCCC(N3)C(=O)OCC(C)(C)C2)C1 the listed viability, T/C is 10.1

For record CC(C)NCC(C(=O)N1CCN(c2ncnc3c2C(C)CC3O)CC1)c1ccc(Cl)cc1 (centres undefined) + CCn1c(-c2cccnc2C(C)OC)c2c3cc(ccc31)N1CCOC(CC(NC(=O)C(C(C)C)N(C)C(=O)C3(F)CCN(C(=O)C#CC(C)(C)N(C)C)CC3)C(=O)N3CCCC(N3)C(=O)OCC(C)(C)C2)C1 the listed viability, T/C is 9.7

---

# Test system: K86415-001-R-J1-PDC complex spheroids, viability
# protocol_notes: Anticancer human tumor K86415-001-R-J1-PDC cell line growth inhibition [RAS]; active = viability on the fitted dose curve at most 10% of control; inactive = the rest;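 also: spheroids exposed to agents for seven days before readout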
# cond: second compound 0.316 µM; first compound 0.0316 µM
The reply should be one of these categories: active, inactive

Ask: Dear all, I need the recorded test outcome for CC(C)n1nc(-c2ccc3oc(N)nc3c2)c2c(N)ncnc21 + C=CC(=O)N1CCN(c2nc(OCC3CCCN3C)nc3c(F)c(-c4nc(N)cc(C)c4C(F)(F)F)c(Cl)cc23)C(C)C1 , thank you.
Result: active

Ask: Dear all, I need the recorded test outcome for CC(Nc1ccc2c(c1)OCCn1cc(N3C(=O)OCC3C(F)F)nc1-2)C(N)=O (stereo not drawn) + C=CC(=O)N1CCN(c2nc(OCC3CCCN3C)nc3c(F)c(-c4nc(N)cc(C)c4C(F)(F)F)c(Cl)cc23)C(C)C1 , thank you.
Result: active

Ask: Dear all, I need the recorded test outcome for O=C(c1ccc(F)c(F)c1Nc1ccc(I)cc1F)N1CC(O)([C@@H]2CCCCN2)C1 + C#Cc1c(F)ccc2cc(O)cc(-c3ncc4c(N5CC6CCC(C5)N6)nc(OCC56CCCN5CC(F)C6)nc4c3F)c12 , thank you.
Result: inactive

Ask: Dear all, I need the recorded test outcome for O=C(c1ccc(F)c(F)c1Nc1ccc(I)cc1F)N1CC(O)([C@@H]2CCCCN2)C1 + C=CC(=O)N1CCN(c2nc(OCC3CCCN3C)nc3c(F)c(-c4nc(N)cc(C)c4C(F)(F)F)c(Cl)cc23)C(C)C1 , thank you.
Result: active

Ask: Dear all, I need the recorded test outcome for Nc1ccn(C2OC(CO)C(O)C2(F)F)c(=O)n1 (stereo not drawn) + C#Cc1c(F)ccc2cc(O)cc(-c3ncc4c(N5CC6CCC(C5)N6)nc(OCC56CCCN5CC(F)C6)nc4c3F)c12 , thank you.
Result: inactive

Ask: Dear all, I need the recorded test outcome for Nc1ccn(C2OC(CO)C(O)C2(F)F)c(=O)n1 (stereo not drawn) + C=CC(=O)N1CCN(c2nc(OCC3CCCN3C)nc3c(F)c(-c4nc(N)cc(C)c4C(F)(F)F)c(Cl)cc23)C(C)C1 , thank you.
Result: inactive

Ask: Dear all, I need the recorded test outcome for CCC(CC)c1cc(NC2CCC(N)C2)n2nccc2n1 (stereo not drawn) + C#Cc1c(F)ccc2cc(O)cc(-c3ncc4c(N5CC6CCC(C5)N6)nc(OCC56CCCN5CC(F)C6)nc4c3F)c12 , thank you.
Result: inactive

Ask: Dear all, I need the recorded test outcome for C=CC(=O)N1CCN(c2nc(OCC3CCCN3C)nc3c(F)c(-c4nc(N)cc(C)c4C(F)(F)F)c(Cl)cc23)C(C)C1 (stereo not drawn) + C#Cc1c(F)ccc2cc(O)cc(-c3ncc4c(N5CC6CCC(C5)N6)nc(OCC56CCCN5CC(F)C6)nc4c3F)c12 , thank you.
Result: inactive

Ask: Dear all, I need the recorded test outcome for CC(C)NCC(C(=O)N1CCN(c2ncnc3c2C(C)CC3O)CC1)c1ccc(Cl)cc1 (stereo not drawn) + C=CC(=O)N1CCN(c2nc(OCC3CCCN3C)nc3c(F)c(-c4nc(N)cc(C)c4C(F)(F)F)c(Cl)cc23)C(C)C1 , thank you.
Result: inactive

Ask: Dear all, I need the recorded test outcome for C[C@@H](NC(=O)c1ncnc(N)c1Cl)c1ncc(C(=O)Nc2cc(C(F)(F)F)c(Cl)cn2)s1 + C=CC(=O)N1CCN(c2nc(OCC3CCCN3C)nc3c(F)c(-c4nc(N)cc(C)c4C(F)(F)F)c(Cl)cc23)C(C)C1 , thank you.
Result: inactive

Ask: Dear all, I need the recorded test outcome for CCC(CC)c1cc(NC2CCC(N)C2)n2nccc2n1 (stereo not drawn) + C=CC(=O)N1CCN(c2nc(OCC3CCCN3C)nc3c(F)c(-c4nc(N)cc(C)c4C(F)(F)F)c(Cl)cc23)C(C)C1 , thank you.
Result: inactive

Ask: Dear all, I need the recorded test outcome for NC1c2ccccc2OC12CCN(c1cnc3c(N4CCCc5ncccc54)n[nH]c3n1)CC2 (stereo not drawn) + C=CC(=O)N1CCN(c2nc(OCC3CCCN3C)nc3c(F)c(-c4nc(N)cc(C)c4C(F)(F)F)c(Cl)cc23)C(C)C1 , thank you.
Result: active

Ask: Dear all, I need the recorded test outcome for CC(=O)OC12COC1CC(O)C1(C)C(=O)C(O)C3=C(C)C(OC(=O)C(O)C(NC(=O)OC(C)(C)C)c4ccccc4)CC(O)(C(OC(=O)c4ccccc4)C21)C3(C)C (stereo not drawn) + C#Cc1c(F)ccc2cc(O)cc(-c3ncc4c(N5CC6CCC(C5)N6)nc(OCC56CCCN5CC(F)C6)nc4c3F)c12 , thank you.
Result: inactive
